target: CDK4-CYCLIND1 (Homo sapiens, UniProt P11802); assay: Microfluidic LabChip kinase inhibition assay, CDK4-CyclinD1; conditions: CDK4 IC50 (μM), Table 2; 200 μM ATP, 1 nM enzyme
Sequence (P11802 whole entry): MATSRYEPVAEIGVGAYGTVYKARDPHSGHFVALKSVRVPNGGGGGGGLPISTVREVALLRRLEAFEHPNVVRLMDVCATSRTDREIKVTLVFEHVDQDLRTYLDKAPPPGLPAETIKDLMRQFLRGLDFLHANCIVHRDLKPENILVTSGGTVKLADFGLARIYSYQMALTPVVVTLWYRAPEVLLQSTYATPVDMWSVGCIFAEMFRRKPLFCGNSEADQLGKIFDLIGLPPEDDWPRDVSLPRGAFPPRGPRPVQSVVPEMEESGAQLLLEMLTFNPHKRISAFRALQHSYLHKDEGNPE
Sequence (P24385 whole entry partner): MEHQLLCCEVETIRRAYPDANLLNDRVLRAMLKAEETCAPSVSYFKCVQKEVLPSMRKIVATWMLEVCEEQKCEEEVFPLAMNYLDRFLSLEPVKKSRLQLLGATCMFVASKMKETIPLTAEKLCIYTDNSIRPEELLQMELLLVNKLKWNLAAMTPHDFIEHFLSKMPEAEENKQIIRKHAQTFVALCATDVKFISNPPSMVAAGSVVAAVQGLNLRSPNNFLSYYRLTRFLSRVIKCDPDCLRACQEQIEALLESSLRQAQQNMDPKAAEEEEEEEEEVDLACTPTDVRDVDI
propertyMeasured: log10 IC50 (log10 of the value in µM)
On a log10 scale: recorded IC50, unit µM.

In: Fill blank: measured log10 IC50 of the molecule CN1CCN(c2ccc(Nc3ncc4c(n3)N(C3CCCC3)C3(CC(=O)NC3=O)C4)c(F)c2)CC1 (centres unmarked) is ____.
Out: 1.17

In: Fill blank: measured log10 IC50 of the molecule CN(C)[C@H]1CCN(c2ccc(Nc3ncc4c(n3)N(C3CCCC3)C(=O)C43CCNC3=O)cc2F)C1 (some centres unmarked) is ____.
Out: 1.07

In: Fill blank: measured log10 IC50 of the molecule CN1CCN(c2ccc(Nc3ncc4c(n3)N(C3CCCC3)C3(CCNC3=O)C4)nc2)CC1 (centres unmarked) is ____.
Out: 0.06

In: Fill blank: measured log10 IC50 of the molecule CC(C)N1CCN(c2ccc(Nc3ncc4c(n3)N(C3CCCC3)C3(CC(=O)N(C)C3=O)C4)cc2F)CC1 (centres unmarked) is ____.
Out: 0.29

In: Fill blank: measured log10 IC50 of the molecule CC(C)N1CCN(c2ccc(Nc3ncc4c(n3)N(C3CCCC3)C3(CCNC3=O)C4)cc2F)CC1 (centres unmarked) is ____.
Out: -1.53

In: Fill blank: measured log10 IC50 of the molecule CN1CCN(c2ccc(Nc3ncc4c(n3)N(C3CCCC3)C(=O)C43CCNC3=O)cc2)CC1 (centres unmarked) is ____.
Out: 1.32

In: Fill blank: measured log10 IC50 of the molecule CC(C)N1CCN(c2ccc(Nc3ncc4c(n3)N(C3CCCC3)C3(CC(=O)N(C)C3=O)C4)cc2)CC1 (centres unmarked) is ____.
Out: -0.80

In: Fill blank: measured log10 IC50 of the molecule CC(C)N1CCN(c2ccc(Nc3ncc4c(n3)N(C3CCCC3)C3(CC(=O)NC3=O)C4)cc2F)CC1 (centres unmarked) is ____.
Out: -1.65

In: Fill blank: measured log10 IC50 of the molecule O=C1NCCC12Cc1cnc(Nc3ccc(N4CCNCC4)cc3F)nc1N2C1CCCC1 (centres unmarked) is ____.
Out: -0.05

In: Fill blank: measured log10 IC50 of the molecule CN1CCN(c2ccc(Nc3ncc4c(n3)N(C3CCCC3)C3(CC(=O)NC3=O)C4)cc2)CC1 (centres unmarked) is ____.
Out: -1.18

In: Fill blank: measured log10 IC50 of the molecule O=C1NCCC12Cc1cnc(Nc3ccc(N4CCC(N5CCOCC5)CC4)nc3)nc1N2C1CCCC1 (centres unmarked) is ____.
Out: -0.85

In: Fill blank: measured log10 IC50 of the molecule COc1ccc(CN2CCC3(Cc4cnc(Nc5ccc(N6CCNCC6)cn5)nc4N3C3CCCC3)C2=O)cc1 (centres unmarked) is ____.
Out: 0.89

---

molecular target: CDK4-CYCLIND1 (Homo sapiens); test: Microfluidic LabChip kinase inhibition assay, CDK4-CyclinD1; conditions: CDK4 IC50 (μM), Table 2; 200 μM ATP, 1 nM enzyme
Would you mind telling me the reported IC50 of each entry?
State the answer as a number, implicitly in µM.

In: Value wanted: IC50 (CDK4-CYCLIND1 (Homo sapiens)) of entry CN1CCN(c2ccc(Nc3ncc4c(n3)N(C3CCCC3)C3(CC(=O)N(C)C3=O)C4)nc2)CC1 (stereo not drawn)
Out: 29.8

In: Value wanted: IC50 (CDK4-CYCLIND1 (Homo sapiens)) of entry O=C1NCCC12Cc1cnc(Nc3ccc(N4CC5(CNC5)C4)c(F)c3)nc1N2C1CCCC1 (stereo not drawn)
Out: 0.0866

In: Value wanted: IC50 (CDK4-CYCLIND1 (Homo sapiens)) of entry CN(C)CCOc1ccc(Nc2ncc3c(n2)N(C2CCCC2)C2(CCNC2=O)C3)cc1 (stereo not drawn)
Out: 0.142

In: Value wanted: IC50 (CDK4-CYCLIND1 (Homo sapiens)) of entry CN1CCN(c2ccc(Nc3ncc4c(n3)N(C3CCCC3)C3(CCN(Cc5ccccc5)C3=O)C4)c(F)c2)CC1 (stereo not drawn)
Out: 5.98

In: Value wanted: IC50 (CDK4-CYCLIND1 (Homo sapiens)) of entry CC(C)N1CCN(c2ccc(Nc3ncc4c(n3)N(C3CCCC3)C3(CCNC3=O)C4)cc2)CC1 (stereo not drawn)
Out: 0.0701

In: Value wanted: IC50 (CDK4-CYCLIND1 (Homo sapiens)) of entry CN1CCN(c2ccc(Nc3ncc4c(n3)N(C3CCCC3)C3(CC(=O)NC3=O)C4)cn2)CC1 (stereo not drawn)
Out: 0.0399

In: Value wanted: IC50 (CDK4-CYCLIND1 (Homo sapiens)) of entry O=C1CC2(Cc3cnc(Nc4ccc(N5CCNCC5)cn4)nc3N2C2CCCC2)C(=O)N1 (stereo not drawn)
Out: 22.7

In: Value wanted: IC50 (CDK4-CYCLIND1 (Homo sapiens)) of entry CN1CCN(c2ccc(Nc3ncc4c(n3)N(C3CCCC3)C3(CC(=O)N(C)C3=O)C4)cc2)CC1 (stereo not drawn)
Out: 1.08

In: Value wanted: IC50 (CDK4-CYCLIND1 (Homo sapiens)) of entry O=C1CC2(Cc3cnc(Nc4ccc(N5CCOCC5)c(F)c4)nc3N2C2CCCC2)C(=O)N1 (stereo not drawn)
Out: 0.101

In: Value wanted: IC50 (CDK4-CYCLIND1 (Homo sapiens)) of entry CC(C)N1CC=C(c2ccc(Nc3ncc4c(n3)N(C3CCCC3)C3(CC(=O)NC3=O)C4)nc2)CC1 (stereo not drawn)
Out: 0.0462

In: Value wanted: IC50 (CDK4-CYCLIND1 (Homo sapiens)) of entry CN(C)CCOc1ccc(Nc2ncc3c(n2)N(C2CCCC2)C2(CCNC2=O)C3)nc1 (stereo not drawn)
Out: 1.5

In: Value wanted: IC50 (CDK4-CYCLIND1 (Homo sapiens)) of entry CC(C)N1CCN(c2ccc(Nc3ncc4c(n3)N(C3CCCC3)C3(CC(=O)NC3=O)C4)nc2)CC1 (stereo not drawn)
Out: 0.103

In: Value wanted: IC50 (CDK4-CYCLIND1 (Homo sapiens)) of entry CC(C)N1CCN(c2ccc(Nc3ncc4c(n3)N(C3CCCC3)C(=O)C43CCNC3=O)cc2F)CC1 (stereo not drawn)
Out: 51

In: Value wanted: IC50 (CDK4-CYCLIND1 (Homo sapiens)) of entry CC(C)N1CC=C(c2ccc(Nc3ncc4c(n3)N(C3CCCC3)C3(CCNC3=O)C4)nc2)CC1 (stereo not drawn)
Out: 0.387

---

Would you mind telling me the reported IC50 of each entry?
target: CDK4-CYCLIND1 (Homo sapiens); assay: Microfluidic LabChip kinase inhibition assay, CDK4-CyclinD1; settings: CDK4 CyclinD1 IC50 (μM), Table 3a; 200 μM ATP; second value in parentheses on the next line
State the answer as a number, implicitly in µM.

In: Fill blank: measured IC50 of the compound O=C1NCCC12Cc1cnc(Nc3ccc(N4CCNCC4)c(F)c3)nc1N2C1CCCC1 (single isomer, unassigned) [Compound C203] is ____.
Out: 0.0245

In: Fill blank: measured IC50 of the compound CC(C)c1ccc(Nc2ncc3c(n2)N(C2CCCC2)C2(CCNC2=O)C3)cc1 (stereo not shown) is ____.
Out: 1.38

In: Fill blank: measured IC50 of the compound CC(C)N1CCN(c2ccc(Nc3ncc4c(n3)N(C3CCCC3)C3(CCNC3=O)C4)cc2F)CC1 (stereo not shown) is ____.
Out: 0.0264

In: Fill blank: measured IC50 of the compound O=C1NCCC12Cc1cnc(Nc3ccc(N4CCNCC4)c(F)c3)nc1N2C1CCCC1 (single isomer, unassigned) [Compound C204] is ____.
Out: 2.03

In: Fill blank: measured IC50 of the compound CC(C)N1CC2(CN(c3ccc(Nc4ncc5c(n4)N(C4CCCC4)C4(CC(=O)NC4=O)C5)cc3)C2)C1 (stereo not shown) is ____.
Out: 0.522

In: Fill blank: measured IC50 of the compound CN(C)[C@@H]1CCN(c2ccc(Nc3ncc4c(n3)N(C3CCCC3)C3(CCNC3=O)C4)cc2F)C1 (stereo partly shown) is ____.
Out: 0.142

In: Fill blank: measured IC50 of the compound O=C1NCCC12Cc1cnc(Nc3ccc(N4CCC(N5CCOCC5)CC4)cc3)nc1N2C1CCCC1 (stereo not shown) is ____.
Out: 0.273

---

biological target: UniProt P11802; assay: Microfluidic LabChip kinase inhibition assay, CDK4-CyclinD1; conditions: CDK4 IC50 (μM), Table 2; 200 μM ATP, 1 nM enzyme
Would you mind telling me the reported IC50 of each entry?
State the answer as a number, implicitly in µM.

In: Fill blank: measured IC50 of the molecule O=C1CC2(Cc3cnc(Nc4ccc(OCCN5CCCC5)c(F)c4)nc3N2C2CCCC2)C(=O)N1 (centres unmarked) is ____.
Out: 0.0554

In: Fill blank: measured IC50 of the molecule CN1CCN(c2ccc(Nc3ncc4c(n3)N(C3CCCC3)C3(CCN(C)C3=O)C4)cc2)CC1 (centres unmarked) is ____.
Out: 4.74

In: Fill blank: measured IC50 of the molecule CC(C)N1CCN(c2ccc(Nc3ncc4c(n3)N(C3CCCC3)C3(CCNC3=O)C4)nc2)CC1 (centres unmarked) is ____.
Out: 0.631

In: Fill blank: measured IC50 of the molecule CN1C(=O)CC2(Cc3cnc(Nc4ccc(N5CCNCC5)c(F)c4)nc3N2C2CCCC2)C1=O (centres unmarked) is ____.
Out: 4.94

In: Fill blank: measured IC50 of the molecule CN1CCN(c2ccc(Nc3ncc4c(n3)N(C3CCCC3)C(=O)C43CCNC3=O)cc2F)CC1 (centres unmarked) is ____.
Out: 20
